Every entry's value here was drawn from PubChem BioAssay (NCATS).

- Test system: MKL-1
- assay_summary: qHTS assay to identify novel small-molecules to repurpose for Merkel cell carcinoma treatment (AID 1296009); note: nearly all actives have a fitted effect of over 60% in size
- condition_notes: MCC and control cell lines, CellTiter-Glo viability, 72 h; series mostly up to 46 µM
Results filed as inconclusive are left out. Active and inactive are the calls of the source. Calls come from the whole dose curve; as a rule, active = well fitted inhibition curve with a large enough effect; inconclusive = small, poorly fitted or top-dose-only effect; inactive = flat fitted curve, though single readings scatter.
Field 'call' accepts active, inactive

The following compounds have reported results that may help.
• Cc1nn(Cc2ccccc2Cl)c(C)c1CN(C)CC(O)COc1ccc(Cl)cc1 (stereo unspecified) = inactive
• COc1cc2c(cc1OC)[C@@H]1Cc3ccc(OC)c(OC)c3CN1CC2 = inactive
• CS(=O)(=O)c1ccc(C2=C(c3ccccc3)C(=O)OC2)cc1 = inactive

Lab log entry: "Cc1nc(NC(=O)N2CCC[C@@H]2C(N)=O)sc1-c1csc(C(C)(C)C)n1" — outcome as called in the assay?
inactive

Likewise for "Nc1ccn([C@@H]2O[C@H](CO)[C@@H](O)[C@H]2O)c(=O)n1" ?
active

Likewise for "C[C@@H](O)[C@H]1C(=O)N2C(C(=O)OCOC(=O)C(C)(C)C)=C(SC3CN(C4=NCCS4)C3)[C@H](C)[C@H]12" ?
inactive

Likewise for CC1=C(C(=O)Nc2cc3cn[nH]c3cc2F)C(c2ccc(C(F)(F)F)cc2)CC(=O)N1 (stereo unspecified) ?
inactive

Likewise for "O=S(=O)(O)c1ccc2cc(N=Nc3cc(S(=O)(=O)O)c4cccnc4c3O)ccc2c1" ?
inactive

Likewise for "COc1cc(Nc2nc3ccccc3nc2NS(=O)(=O)c2ccc(NC(=O)c3ccc(C)c(OC)c3)cc2)cc(OC)c1" ?
inactive

Likewise for "COc1cc2c(cc1OC)CC(=O)N(CCCN(C)C[C@H]1Cc3cc(OC)c(OC)cc31)CC2" ?
inactive

Likewise for "O=C(Nc1cccc2c(=O)cc(-c3nn[nH]n3)oc12)c1ccc(OCCCCc2ccccc2)cc1" ?
inactive

Likewise for "CC(C)C[C@H](NC(=O)c1cc2ccccc2s1)C(=O)N1CCN(C(=O)[C@H](CO)NS(=O)(=O)c2ccc(Cl)cc2Cl)CC1" ?
inactive

Likewise for CN1c2ccccc2C(=O)N2CCc3c([nH]c4ccccc34)C21 (stereo unspecified) ?
inactive

Likewise for "Nc1nc(Cl)nc2c1ncn2[C@@H]1O[C@H](CO)[C@@H](O)[C@H]1F" ?
active

Likewise for "CCNC(=O)Nc1ccc(Oc2ncnc(N)c2C=NOC)cc1Cl" ?
inactive

Likewise for COc1nccc(-c2c(-c3ccc(F)cc3)ncn2C2CCC(O)CC2)n1 (stereo unspecified) ?
inactive

----------
- assay_summary: Quantitative High-Throughput drug screen in 47 multiple myeloma cell lines against the NCATS MIPE library collection: KMS27_JCRB cell viability assay (AID 1918970); note: nearly all actives have a fitted effect of over 30% in size
- condition_notes: KMS27 myeloma cells, CellTiter-Glo ATP viability, 48 h
Inconclusive results are not listed. The source made the active and inactive calls. The call rests on the fitted dose curve; in most records, active means well fitted cell-killing curve with a large enough effect; inconclusive means small, poorly fitted or top-dose-only effect, or effect the other way; inactive means no such curve, though single readings can be large or run the other way.
Field 'call' accepts yes (1) = active, no (0) = inactive

• O=S(=O)(NCCNCC=Cc1ccc(Br)cc1)c1cccc2cnccc12 = yes (1)
• O=C1CN2Cc3c(ccc(Cl)c3Cl)N=C2N1 = yes (1)
• O=[N+]([O-])c1ccc(Nc2ccccc2-c2ccccc2)c2nonc12 = yes (1)
• CN1C(=O)C(Cc2c[nH]c3ccccc23)NC1=S (stereo unspecified) = no (0)
• CN(C)CCOc1ccc(-c2nc(-c3ccc4c(c3)CCC4=NO)c(-c3ccncc3)[nH]2)cc1 = yes (1)

Now examine the next entry.
Lab log entry: "CN(C)S(=O)(=O)c1ccc2c(c1)C(=Cc1cc3c([nH]1)CCCC3)C(=O)N2" — outcome as called in the assay?
yes (1)

----------
- assay_summary: Quantitative High-Throughput drug screen in 47 multiple myeloma cell lines against the NCATS MIPE library collection: SKMM1_PLB cell viability assay (AID 1919863); note: potency is the fitted concentration of half-maximal effect; nearly all actives have a fitted effect of over 35% in size
- condition_notes: SKMM1 myeloma viability, CellTiter-Glo ATP, 48 h
- From the text: PI: Beverly A. Mock Ph.D. Laboratory of Cancer Biology and Genetics, Center for Cancer Research, National Cancer Institute, National Institute of Health, Bethesda, Maryland […] 5; Detector; 425V; Luminescence; Viewlux PerkinElmer. […] 1. […] Briefly, the corresponding myeloma cell lines were screened in 1,536-well plates with 500 cells, 5-uL per well for inhibition of cell viability (assessed by measuring ATP levels with CellTiterGlo). […]
Inconclusive results are not listed. Activity calls are given as the source filed them. The call rests on the fitted dose curve; in most records, active means well fitted cell-killing curve with a large enough effect; inconclusive means small, poorly fitted or top-dose-only effect, or effect the other way; inactive means no such curve, though single readings can be large or run the other way.
Catalogue of Potency values

These solved cases illustrate the format of a correct answer.
* Cc1nn(Cc2ccccc2Cl)c(C)c1CN(C)CC(O)COc1ccc(Cl)cc1 (configuration not stated) | 3.32 µM (active)
* CN(C(Cc1ccc(OS(=O)(=O)c2cccc3cnccc23)cc1)C(=O)N1CCN(c2ccccc2)CC1)S(=O)(=O)c1cccc2cnccc12 (configuration not stated) | 9.35 µM (active)
* CC1(C)C(N(O)C(=O)Nc2ccc(Cl)cc2)N(c2ccc(Cl)cc2)C(=O)N1CC(=O)NN=CC=Cc1ccc([N+](=O)[O-])o1 (configuration not stated) | 13.2 µM (active)
* CC(C)C[C@@H](C(=O)N[C@H](C(=O)OC1CCCC1)c1ccccc1)[C@H](O)C(=O)NO | 20.9 µM (active)
* COc1ccc2nc3cc(Cl)ccc3c(Nc3cc(CN4CCCC4)c(O)c(CN4CCCC4)c3)c2n1 | 14.8 µM (active)

Reported Potency, molecule "C[C@@H](O[C@H]1OCCN(Cc2n[nH]c(=O)[nH]2)[C@@H]1c1ccc(F)cc1)c1cc(C(F)(F)F)cc(C(F)(F)F)c1" : ____
23.5 µM (active)

Likewise for "CCCCc1ccc(NS(=O)(=O)c2ccc(C)c(C(=O)N3CCN(c4cccc(C)c4C)CC3)c2)cc1" ?
20.9 µM (active)

Likewise for Clc1ccc(COC(Cn2ccnc2)c2ccc(Cl)cc2Cl)c(Cl)c1 (configuration not stated) ?
20.9 µM (active)

Likewise for "CN(C)CCCNC(=O)c1ccc(-c2cc(O)c3ncccc3c2)cc1" ?
14.8 µM (active)

Likewise for "CC(O)=C(C#N)C(=O)Nc1ccc(C(F)(F)F)cc1" ?
18.7 µM (active)

Likewise for "CCCCCCCCCCCCCC(=O)N[C@H](CO)[C@H](O)c1ccc([N+](=O)[O-])cc1" ?
7.43 µM (active)

Likewise for "Cc1ccccc1-n1c(Cn2nc(-c3cccc(O)c3)c3c(N)ncnc32)nc2cccc(C)c2c1=O" ?
8.33 µM (active)

----------
- assay_summary: qHTS profiling of the MIPE4 collection as inhibitors of Plasmodium falciparum (DD2) proliferation (AID 743345)
- condition_notes: P. falciparum Dd2 in erythrocytes, SYBR Green DNA, 72 h; at 28.5 µM (top of the series) unless noted
Catalogue of parasite growth remaining, % of DMSO control (lower = more inhibition) values
Record the value in %, omitting the unit from your answer.

These solved cases illustrate the format of a correct answer.
• Cc1csc(-c2nnc(Nc3ccc(Oc4ncccc4-c4ccnc(N)n4)cc3)c3ccccc23)c1 = 81.1
• C[C@]12CC[C@@H]3c4ccc(O)cc4CC[C@H]3[C@H]1[C@@H](O)[C@@H](O)[C@H]2O = 9.25
• Cc1ccc(C(=O)N(CCCN)[C@@H](c2nc3cc(Cl)ccc3c(=O)n2Cc2ccccc2)C(C)C)cc1 = 7.03
• CC1(C)OC2CC3C4CC(F)C5=CC(=O)C=CC5(C)C4C(O)CC3(C)[C@]2(C(=O)CO)O1 (some centres undefined) = 89.8
• CCOC(=O)N1CCN([N+]([O-])=NOc2cc(ON=[N+]([O-])N3CCN(C(=O)OCC)CC3)c([N+](=O)[O-])cc2[N+](=O)[O-])CC1 = 45.7

Moving on to another molecule below.
Reported parasite growth remaining, % of DMSO control (lower = more inhibition), molecule "N#CC(=C1Nc2ccccc2S1)c1ccnc(OCc2ccc(CN3CCOCC3)cc2)n1" : ____
57.9

----------
Catalogue of Potency values
- assay_summary: Quantitative High-Throughput drug screen in 47 multiple myeloma cell lines against the NCATS MIPE library collection: KMS34_JCRB cell viability assay (AID 1918985); note: potency is the fitted concentration of half-maximal effect; nearly all actives have a fitted effect of over 40% in size
- condition_notes: KMS34 myeloma viability, CellTiter-Glo ATP luminescence, 48 h; series mostly up to 45.8 µM
Results filed as inconclusive are left out. The source made the active and inactive calls. The call rests on the fitted dose curve; in most records, active means well fitted cell-killing curve with a large enough effect; inconclusive means small, poorly fitted or top-dose-only effect, or effect the other way; inactive means no such curve, though single readings can be large or run the other way.

- N#CC(=C1Nc2ccccc2S1)c1ccnc(OCc2ccc(CN3CCOCC3)cc2)n1: 18.7 µM (active)

Reported Potency, compound C[C@@H]1O[C@@H](O[C@H]2CC[C@@]3(C)[C@H](CC[C@@H]4[C@H]3C[C@@H](O)[C@]3(C)[C@@H](C5=CC(=O)OC5)CC[C@]43O)C2)C[C@H](O)[C@@H]1O[C@H]1C[C@H](O)[C@H](O[C@H]2C[C@H](O)[C@@H](O)[C@@H](C)O2)[C@H](C)O1 (stereo in doubt) : ____
0.34 µM (active)

----------
- Test system: Tov-21-G
- assay_summary: Primary qHTS to identify gynecologic anti-cancer compounds using libraries of approved drugs and bioactive compounds (AID 1345084); note: nearly all actives have a fitted effect of over 55% in size
- condition_notes: Gynecologic cancer cell panel viability, ATPlite luminescence, 48 h; series mostly up to 57.5 µM
Results filed as inconclusive are left out. Calls of active or inactive are those of the source. Calls come from the whole dose curve; as a rule, active = well fitted cell-killing curve with a large enough effect; inconclusive = small, poorly fitted or top-dose-only effect, or effect the other way; inactive = flat fitted curve, though single readings scatter.
Field 'call' accepts active, inactive

The following molecules have reported results that may help.
* CCc1cccc(CC)c1NC(=O)N1Cc2[nH]nc(NC(=O)c3ccc(N4CCN(C)CC4)cc3)c2C1 | active
* CNC(=O)c1c(-c2ccc(F)cc2)oc2cc(N(CCO)S(C)(=O)=O)c(C3CC3)cc12 | inactive
* NC(=O)c1noc([C@H](CCCC2CCCCC2)CC(=O)NO)n1 | inactive

Lab log entry: "C=CC(=O)Nc1cccc(Sc2nc(Nc3ccc(N4CCN(C)CC4)cc3)ncc2Cl)c1" — outcome as called in the assay?
active

Likewise for "C[C@@H]1C[C@H]2[C@@H]3CCC4=CC(=O)C=C[C@]4(C)[C@@]3(F)[C@@H](O)C[C@]2(C)[C@@]1(O)C(=O)CO" ?
inactive
